biological target: NGF (nerve growth factor) (Homo sapiens, UniProt P01138 P01138:122-241); test: cell_activity; neurite; TF-1 >1; conditions: tags: R&D Systems; chain copies: 2
Sequence (P01138 122-241, one chain of several): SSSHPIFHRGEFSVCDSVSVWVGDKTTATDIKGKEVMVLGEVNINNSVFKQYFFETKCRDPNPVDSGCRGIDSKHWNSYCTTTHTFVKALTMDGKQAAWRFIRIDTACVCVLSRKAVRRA
assay-readout: pIC50
Answers are plain numbers, as −log10 of the molar value.

Here's what some known entries look like.
# binder, pIC50
data = [
    ("GGGUCCUGCUGCGUAGUUUCCGUCUGCGUGGUUGUUACCC (ssRNA, 2'-F C/U, dA, 2'-OH G) [SEQ ID NO: 103]", 9.12),
    ("GGGUCCUGACGUAUAGUUUCCGUCUGUAUGUCUGUUACCC (ssRNA, 2'-F C/U, dA, 2'-OH G) [SEQ ID NO: 101]", 9.00),
    ("GGGUCCUGUGGAAGAGUUUCCGUCUCGUCCACUGUUACCC (ssRNA, 2'-F C/U, dA, 2'-OH G) [SEQ ID NO: 89]", 9.02),
]

Below is a list of binders. For each, state its recorded pIC50.
1. GGGUCCUGUUGCUAAGUUUCCGUCUUAGUGACUGUUACCC (ssRNA, 2'-F C/U, dA, 2'-OH G) [SEQ ID NO: 105]
2. GGGUCCUGUUGCGUAGUUUCCGUCUGCGUGACUGUUACCC (ssRNA, 2'-F C/U, dA, 2'-OH G) [SEQ ID NO: 108]
3. GGGUCCUGCCGCGUAGUUUCCGUCUGCGUGGCUGUUACCC (ssRNA, 2'-F C/U, dA, 2'-OH G) [SEQ ID NO: 110]

### Response
9.35
9.39
9.00
